Exercise: for every item that follows, state its recorded TGI.
System: MDA-MB-231 breast
Experiment: NCI tumour cell line growth inhibition, 48 h

Provide each entry's TGI from the list below.
1. Clc1c(Cl)c(Cl)c2c(nnn2C2CCCO2)c1Cl (stereo not drawn)
2. S=C(NNC1=NCCCCN1)Nc1ccc(Cl)cc1
3. Cc1sc2[nH]c(=O)oc(=O)c2c1C

Result ::
> 100 µM
> 100 µM
> 100 µM

* * *

Tested on: HCT-15 colon
Assay: NCI tumour cell line growth inhibition, 48 h
Recorded Endpoint: TGI (µM)
Answers are plain numbers, in µM.

Would you please look over these solved cases?
[[record]]
compound = "C=C1CCCC2[C@](C)(CC3=C(Cl)C(=O)C=C(OC)C3=O)C(C)CC[C@]12C (some centres not stated)"
measurement_units = "µM"
observed_measurement = 13.9

[[record]]
compound = "O=C1c2[nH]cc(CNC3CN4CCC3CC4)c2C(=O)c2c1c(O)c1ccccc1c2O (configuration not stated)"
measurement_units = "µM"
observed_measurement = 8.55

[[record]]
compound = "CCN(CC)CC(C)(C)C(=O)/C=C/c1cccc(/C=C/C(=O)C(C)(C)CN(CC)CC)c1"
measurement_units = "µM"
observed_measurement = 2.37

[[record]]
compound = "COc1cc(C2S/C(=C/c3ccccc3)C(=O)N2c2ccc(NC(C)=O)cc2)cc(OC)c1OC (configuration not stated)"
measurement_units = "µM"
observed_measurement = 46.7


Read the next record carefully.
Record CC[C@@H]1[C@@H](C)O[C@@](O)([C@@H](C)[C@H](O)[C@H](C)[C@H]2OC(=O)/C=C/C=C/[C@H](C)[C@@H]([C@@H](C)[C@@H](O)[C@H](C)[C@@]3(O)C[C@@H](O[C@H]4C[C@@H](O)[C@H](O)C(C)O4)[C@H](CC)[C@@H](C)O3)OC(=O)/C=C/C=C/[C@@H]2C)C[C@H]1O[C@@H]1C[C@@H](O)[C@H](O)C(C)O1 (some centres not stated) . Reported TGI: 0.924

* * *

Tested on: UACC-62 melanoma
Assay: NCI tumour cell line growth inhibition, 48 h
Exercise: for every item that follows, state its recorded TGI.

[[record]]
compound = "Cc1cc([N+](=O)[O-])ccc1Sc1c2ccccc2nc2cc(Cl)ccc12"
observed_measurement = "> 100 µM"


Provide each entry's TGI from the list below.
1. Nc1cc(F)ccc1CC(=O)O
2. COc1cc(C(=O)/C=C/c2ccc(OCCSCCCCCCCCCCSCCOc3ccc(/C=C/C(=O)c4cc(OC)c(OC)c(OC)c4)cc3)cc2)cc(OC)c1OC
3. CC[C@H](NC(=O)[C@H]1CCCCN1C)C(=O)N(C)[C@H](C[C@@H](OC(C)=O)c1nc(C(=O)N[C@@H](Cc2ccccc2)C[C@H](C)C(=O)O)cs1)C(C)C
4. O=C(c1cc2ccccc2[nH]1)N1C2CCC1CN(CCOC(c1ccc(F)cc1)c1ccc(F)cc1)CC2 (stereo unspecified)
5. COc1ccc(OC(C)=O)c2c1CCC=CC2=O

Result ::
1: > 100 µM; 2: > 100 µM; 3: > 14.3 µM; 4: > 100 µM; 5: 26.2 µM

* * *

Test system: MDA-MB-435
Experiment: NCI tumour cell line growth inhibition, 48 h
Exercise: for every item that follows, state its recorded TGI.

Would you please look over these solved cases?
[[record]]
compound = "O=C(O)/C=C/C(=O)N1Cc2cc3ccccc3nc2C1"
observed_measurement = "> 100 µM"

[[record]]
compound = "Oc1cc(O)c2ccc(-c3ccc(O)c(O)c3)[o+]c2c1"
observed_measurement = "> 100 µM"

[[record]]
compound = "N#C[C@H](C(=O)c1ccccc1F)c1nc2ccccc2s1"
observed_measurement = "> 100 µM"


Provide each entry's TGI from the list below.
1. O=C(O)CSC(CC1(c2ccc(Cl)cc2)NC(=O)CS1)c1ccc(Cl)cc1 (stereo not drawn)
2. COc1cc(=O)c2c(O)c3c(O)oc(C)cc3c(OC)c2c1
3. Cn1c(NNc2ccccc2)cc(=O)[nH]c1=O
4. c1ccc2c(c1)NCCC(=NC1CCCCC1)N2
5. COc1cc(C2S/C(=C/c3ccccc3)C(=O)N2c2ccc(NC(C)=O)cc2)cc(OC)c1OC (stereo not drawn)

Result ::
["> 100 µM", "32.7 µM", "43.1 µM", "> 100 µM", "62.4 µM"]

* * *

Exercise: for every item that follows, state its recorded TGI.
System: MCF7 breast
Experiment: NCI tumour cell line growth inhibition, 48 h

Would you please look over these solved cases?
[[record]]
compound = "CN(C)CCNc1nc2ccccc2c2c1CCCC2"
observed_measurement = "29.1 µM"

[[record]]
compound = "COc1cc(C2S/C(=C/c3ccccc3)C(=O)N2c2ccc(NC(C)=O)cc2)cc(OC)c1OC (stereo not drawn)"
observed_measurement = "> 100 µM"


Provide each entry's TGI from the list below.
1. CCCCCCCCCCCCCCCCCCNc1ccn(C2OC(COP(=O)(O)OCC3OC(n4cc(C)c(=O)[nH]c4=O)CC3F)C(O)C2O)c(=O)n1 (stereo not drawn)
2. CCN(CC)CCC(=O)c1ccc(Sc2ccc(F)cc2)cc1
3. CCc1c(CN)c(CC)c(CNC2=NCCN2)c(CC)c1CNC1=NCCN1
4. Nc1ccccc1NC(=O)c1ccc(CNc2nccc(-c3cccnc3)n2)cc1
5. CCOC(=O)c1ccc(Nc2sc(C(=O)c3ccc(Br)cc3)c(N)c2C#N)cc1

Result ::
["> 64.5 µM", "31 µM", "> 100 µM", "> 43.3 µM", "> 100 µM"]

Record C=CCC(N[C@@H](CO)c1ccccc1)c1cn(Cc2ccccc2Cl)c(=O)n(Cc2ccccc2Cl)c1=O (stereo partly drawn) . Reported TGI: > 100 µM

* * *

System: NCI-H460 lung
Assay: NCI tumour cell line growth inhibition, 48 h
Mark TRUE for reported TGI of 30 µM or greater; mark FALSE for anything smaller.

Reference set, count: 7
[[record]]
compound = "O=C1CC[C@H](N2C(=O)c3cccc4c(Cc5ccc(CN6CCOCC6)cc5)ccc2c34)C(=O)N1"
study_system = "NCI-H460 lung"
class_name = "TRUE"

[[record]]
compound = "CC(=O)OCC(OC(C)=O)C(OC(C)=O)C(/C=N\\Nc1nc2ccccc2c(=O)[nH]1)=N\\Nc1nc2ccccc2c(=O)[nH]1 (stereo not drawn)"
study_system = "NCI-H460 lung"
class_name = "TRUE"

[[record]]
compound = "COc1ccc(OC(C)=O)c2c1CCC=CC2=O"
study_system = "NCI-H460 lung"
class_name = "TRUE"

[[record]]
compound = "NC1=CC(=O)c2cccnc2C1=O"
study_system = "NCI-H460 lung"
class_name = "FALSE"

[[record]]
compound = "CC[C@H]1CN2CCc3cc(OC)c(OC)cc3C2C[C@@H]1CC1NCCc2cc(OC)c(OC)cc21 (stereo partly drawn)"
study_system = "NCI-H460 lung"
class_name = "FALSE"

[[record]]
compound = "COC(=O)c1c(C)cccc1C1CN=NC12Cc1ccccc1C2=O (stereo not drawn)"
study_system = "NCI-H460 lung"
class_name = "TRUE"

[[record]]
compound = "O=C(O)CSCc1cc2c(O)c(c1)Cc1cc(CSCC(=O)O)cc(c1O)Cc1cc(CSCC(=O)O)cc(c1O)Cc1cc(CSCC(=O)O)cc(c1O)C2"
study_system = "NCI-H460 lung"
class_name = "TRUE"


In the following, a different compound is considered.
Query :: Does TGI meet or surpass 30 µM for "c1ccc2c(CN3CCN(Cc4c[nH]c5ccccc45)CC3)c[nH]c2c1" ?
Result :: FALSE

* * *

Test system: IGROV1 ovarian
Assay: NCI tumour cell line growth inhibition, 48 h
Recorded Endpoint: TGI

Would you please look over these solved cases?
[[record]]
structure = "FC(F)(F)c1ccc(Cc2nc3cc4ccccc4cc3[nH]2)cc1"
observed_measurement = "> 100 µM"

[[record]]
structure = "S=C(NNC1=NCCCCN1)Nc1ccc(Cl)cc1"
observed_measurement = "> 100 µM"

[[record]]
structure = "CCN(CC)C(=O)Cn1c(-c2ccccc2)cc2ccccc21"
observed_measurement = "> 100 µM"


Read the next record carefully.
Record "C=C(C)[C@@H]1CC[C@]2(COCCC#N)CC[C@]3(C)[C@H](CC[C@@H]4[C@@](C)(CCCNCCC#N)[C@H](C(=C)C)CC[C@]43C)[C@@H]12" / IGROV1 ovarian, TGI recorded as > 50 µM

* * *

System: UACC-62 melanoma
Test: NCI tumour cell line growth inhibition, 48 h
Exercise: for every item that follows, state its recorded TGI.
Numbers only, in µM.

Would you please look over these solved cases?
[[record]]
compound = "CCOc1ccc(N/C(=C(/C(Cl)=C(/Cl)Nc2ccccc2)[N+](=O)[O-])n2nnc3ccccc32)cc1"
observed_measurement = 43.5

[[record]]
compound = "COc1cc2nc(Nc3cccc(Br)c3)nc(Nc3cccc(Br)c3)c2cc1OC"
observed_measurement = 32.8

[[record]]
compound = "COc1c(O)c(OC)c2oc(-c3ccc(O)c(O)c3)c(OC)c(=O)c2c1O"
observed_measurement = 47.8


Read the next record carefully.
Record CC(=O)OC(CN1CCN(c2ccccn2)CC1)Cn1sc2nc(C)cc(C)c2c1=O (stereo not given) . Reported TGI: 30
